Data origin: patent US12053459B2

Recorded pIC50 values for a group of molecules are listed next.
studyTarget: CDK2/Cyclin E1(14-475) (Homo sapiens, UniProt P24941)
assayProtocol: Caliper LabChip EZ Reader mobility shift assay, inhibition of CDK2/Cyclin E1 activity
Type: biochemical
studyConditions: class symbols A-D
pIC50: −log10 of the molar value.

molecule="CNC(=O)[C@H](CCCc1ccccc1)NC(=O)C1CN(C(=O)Cc2c[nH]c3cc(Cl)ccc23)CC2CN(C(=O)c3cc(-c4ccccc4)on3)CC21 (stereo partly shown)" testresult="< 5.00"
molecule="CNC(=O)[C@H](CCCc1ccccc1)NC(=O)C1CN(C(=O)c2cncc(C)n2)CC2CN(C(=O)c3ccc(OC(C)C)c(OC)c3)CC21 (stereo partly shown)" testresult="< 5.00"
molecule="CNC(=O)[C@H](CCCc1ccc(O)cc1)NC(=O)C1CN(C(=O)Cc2c[nH]c3cc(Cl)ccc23)CC2CN(C(=O)c3ccc(OC(C)C)c(OC)c3)CC21 (stereo partly shown)" testresult="5.00 to 5.30"
molecule="CNC(=O)[C@H](CCCc1ccccc1)NC(=O)C1CN(C(=O)c2ccc(C#N)cn2)CC2CN(C(=O)c3ccc(OC(C)C)c(OC)c3)CC21 (stereo partly shown)" testresult="< 5.00"
molecule="CNC(=O)[C@H](CCCc1ccccc1)NC(=O)C1CN(C(=O)Cc2ccnc3ccccc23)CC2CN(C(=O)c3ccc(OC(C)C)c(OC)c3)CC21 (stereo partly shown)" testresult="< 5.00"

*Q* Output pIC50 of COc1cc(C(=O)N2CC3CN(C(=O)Cc4c[nH]c5cc(Cl)ccc45)CC(C(=O)NCC(=O)N(C)CCCc4ccccc4)C3C2)ccc1OC(C)C (single isomer, unassigned) [I-100]
*A* ≥ 6.30

*Q* Output pIC50 of COc1cc(C(=O)N2CC3CN(C(=O)Cc4c[nH]c5cc(Cl)ccc45)CC(C(=O)N[C@H]4CCCN(Cc5ccccc5)C4)C3C2)ccc1OC(C)C (single isomer, unassigned) [I-118]
*A* < 5.00

*Q* Output pIC50 of CNC(=O)[C@H](CCCc1ccc2[nH]nnc2c1)NC(=O)C1CN(C(=O)Cc2c[nH]c3cc(Cl)ccc23)CC2CN(C(=O)c3ccc(OC(C)C)c(OC)c3)CC21 (stereo partly shown)
*A* < 5.00

*Q* Output pIC50 of CNC(=O)[C@H](CCCc1ccccc1)NC(=O)C1CN(C(=O)c2coc(C)n2)CC2CN(C(=O)c3ccc(OC(C)C)c(OC)c3)CC21 (stereo partly shown)
*A* < 5.00

*Q* Output pIC50 of CNC(=O)[C@H](CCCc1ccccc1)NC(=O)C1CN(C(=O)Cc2c[nH]c3cc(Cl)ccc23)CC2CN(C(=O)c3ccc(-c4cccnc4)cc3)CC21 (stereo partly shown)
*A* 5.00 to 5.30

*Q* Output pIC50 of COc1cc(C(=O)N2CC3CN(C(=O)Cc4c[nH]c5cc(Cl)ccc45)CC(C(=O)NCC(=O)N(C)CCCc4ccccc4)C3C2)ccc1OC(C)C (single isomer, unassigned) [I-101]
*A* < 5.00

*Q* Output pIC50 of CNC(=O)[C@H](CCCc1ccccc1)NC(=O)C1CN(C(=O)Cc2c[nH]c3cc(Cl)ccc23)CC2CN(C(=O)c3ccc4[nH]c(=O)oc4c3)CC21 (stereo partly shown)
*A* < 5.00

*Q* Output pIC50 of CNC(=O)[C@@H](NC(=O)C1CN(C(=O)Cc2c[nH]c3cc(Cl)ccc23)CC2CN(C(=O)c3cc(-c4ccccc4)n[nH]3)CC21)[C@H](C)OCc1ccccc1 (stereo partly shown)
*A* 5.30 to 6.30

*Q* Output pIC50 of CNC(=O)[C@H](CCCc1ccccc1)NC(=O)C1CN(C(=O)Cc2c[nH]c3c(OC)cccc23)CC2CN(C(=O)c3ccc(OC(C)C)c(OC)c3)CC21 (stereo partly shown)
*A* < 5.00

*Q* Output pIC50 of CNC(=O)[C@H](CCCc1ccccc1)NC(=O)C1CN(C(=O)Cc2c[nH]c3cc(Cl)ccc23)CC2CN(C(=O)c3c[nH]c(-c4ccccc4)n3)CC21 (stereo partly shown)
*A* < 5.00

*Q* Output pIC50 of CNC(=O)[C@H](CCCc1ccccc1)NC(=O)C1CN(C(=O)Cc2c[nH]c3cc(Cl)ccc23)CC2CN(C(=O)c3ccc(OC(C)C)c(Cl)c3)CC21 (stereo partly shown)
*A* < 5.00

*Q* Output pIC50 of CNC(=O)[C@H](CCCc1ccccc1)NC(=O)C1CN(C(=O)c2cncs2)CC2CN(C(=O)c3ccc(OC(C)C)c(OC)c3)CC21 (stereo partly shown)
*A* < 5.00

*Q* Output pIC50 of CNC(=O)[C@H](CCCc1ccccc1)NC(=O)C1CN(C(=O)Cc2cnccn2)CC2CN(C(=O)c3ccc(OC(C)C)c(OC)c3)CC21 (stereo partly shown)
*A* < 5.00

*Q* Output pIC50 of C[C@@H](OCc1ccc(F)cc1)[C@H](NC(=O)C1CN(C(=O)Cc2c[nH]c3cc(Cl)ccc23)CC2CN(C(=O)c3ccc(OC4CC4)cc3)CC21)C(N)=O (stereo partly shown)
*A* < 5.00
